Recorded values, source ChEMBL document CHEMBL4020829.

# study system: UniProt P22303
# Sequence (P22303 whole entry): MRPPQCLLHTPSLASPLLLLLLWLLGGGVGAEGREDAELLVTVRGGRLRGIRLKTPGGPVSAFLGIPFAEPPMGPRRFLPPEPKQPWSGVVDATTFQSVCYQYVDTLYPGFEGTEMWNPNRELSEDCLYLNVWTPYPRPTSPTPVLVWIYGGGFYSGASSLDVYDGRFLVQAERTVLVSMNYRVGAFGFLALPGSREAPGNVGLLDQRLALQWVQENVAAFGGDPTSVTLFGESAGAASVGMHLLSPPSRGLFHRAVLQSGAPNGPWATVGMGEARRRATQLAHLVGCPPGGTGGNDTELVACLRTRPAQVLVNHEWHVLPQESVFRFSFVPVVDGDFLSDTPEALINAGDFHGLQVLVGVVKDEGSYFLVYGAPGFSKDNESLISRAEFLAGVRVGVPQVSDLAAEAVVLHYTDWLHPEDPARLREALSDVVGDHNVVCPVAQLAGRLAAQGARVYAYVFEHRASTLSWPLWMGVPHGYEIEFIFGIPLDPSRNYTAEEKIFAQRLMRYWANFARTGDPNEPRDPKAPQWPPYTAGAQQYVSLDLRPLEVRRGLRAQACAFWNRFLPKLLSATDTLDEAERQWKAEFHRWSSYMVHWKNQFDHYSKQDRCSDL
readout type: IC50 (µM)
One number for each entry, in µM.

                  compound_structure_string  units_label  test_value
0  CCOc1ccc(Cc2nc3cc(C(=O)N(CC)CC)ccc3n2CCCCN2CCCCC2)cc1           µM        60.1

Request: So what's the measured IC50 for this one? CCOc1ccc(Cc2nc3cc(C(=O)N(CC)CC)ccc3n2CCCCCCN2CCCCC2)cc1
Response: 20

----------
Assign inhibition to each entry below.
# study system: Acetylcholinesterase (Electrophorus electricus)
# procedure summary: Inhibition of electric eel AChE at 10 uM using ATC iodide as substrate preincubated for 4.5 mins followed by substrate addition measured after 2.5 mins by Ellman's method relative to control
One number for each entry, in %.

>>> df
                  compound_structure_string                              study_system  test_value
0  CCOc1ccc(Cc2nc3cc(C(=O)Nc4ccccc4)ccc3n2CCC(C)C)cc1  Acetylcholinesterase (Electrophorus electricus)           2
1  CCOc1ccc(Cc2nc3cc(NC(=O)c4ccccc4)ccc3n2CCC(C)C)cc1  Acetylcholinesterase (Electrophorus electricus)           2

Alright, here's another compound for you.
Request: Tell me the measured inhibition of CCCCCCNC(=O)c1ccc2c(c1)nc(Cc1ccc(OCC)cc1)n2CCC(C)C , please.
Response: 8

----------
pIC50 values recorded for Cannabinoid receptor 2 (Homo sapiens)
Answers are plain numbers, as −log10 of the molar value.

Example molecules with recorded pIC50:
>>> print(df.to_string())
                  compound_structure_string  readout_type  test_value
0  CCOc1ccc(CNc2nc3cc(C(=O)N(CC)CC)ccc3n2CCC(C)C)cc1         pIC50        6.40
1  CCOc1ccc(Cc2nc3cc(C(=O)NC45CC6CC(CC(C6)C4)C5)ccc3n2CCC(C)C)cc1         pIC50        5.30
2  CCOc1ccc(Cc2nc3cc(C(=O)N(CC)CC)ccc3n2CCCCCCN2CCCCC2)cc1         pIC50        5.90

Below are 2 molecules. Give each one its pIC50.
1. CCOc1ccc(Cc2nc3cc(C(=O)Nc4ccccc4)ccc3n2CCC(C)C)cc1
2. CCOc1ccc(Cc2nc3cc(C(=O)N4CCCCC4)ccc3n2CCC(C)C)cc1

Response:
1: 4.80; 2: 6.40
